Assayed system: human cannabinoid CB1 receptor (Homo sapiens, UniProt P21554)
Sequence (P21554 whole entry): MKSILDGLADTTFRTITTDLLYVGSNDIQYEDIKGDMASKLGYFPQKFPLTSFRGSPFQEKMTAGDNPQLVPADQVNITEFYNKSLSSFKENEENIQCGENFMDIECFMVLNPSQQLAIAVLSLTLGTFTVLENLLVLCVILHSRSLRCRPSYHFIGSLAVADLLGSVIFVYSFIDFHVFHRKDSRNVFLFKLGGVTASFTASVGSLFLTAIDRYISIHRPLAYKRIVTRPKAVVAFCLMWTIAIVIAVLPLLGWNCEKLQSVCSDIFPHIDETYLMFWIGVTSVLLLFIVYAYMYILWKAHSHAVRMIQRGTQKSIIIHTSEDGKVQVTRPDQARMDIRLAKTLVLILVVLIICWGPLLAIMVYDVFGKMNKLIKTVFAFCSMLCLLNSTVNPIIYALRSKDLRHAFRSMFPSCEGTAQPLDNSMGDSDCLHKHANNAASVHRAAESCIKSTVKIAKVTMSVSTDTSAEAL
Assay protocol: Cannabinoid CB1 receptor agonist activity in yeast cells expressing the receptor (FDGlu fluorescence)
Experimental parameters: yeast assay; individual values of the exceptions; read-out: EC50 at the cloned human cannabinoid CB1 receptor
pEC50: −log10 of the molar value. Structures can show the parent of a compound that is named as a salt.
Observation type: pEC50

>>> df
                                   compound                            assayed_system  readout_value
0  Cn1ccc2c(Nc3ccc(C#N)c(Cl)c3)ncc(C(=O)N3CCOCC3)c21 [Example 130, hydrochloride]  human cannabinoid CB1 receptor (Homo sapiens, UniProt P21554)           6.05
1  Cn1ccc2c(Nc3cc(Cl)cc(Cl)c3)ncc(C(=O)N3CCOCC3)c21 [Example 124, hydrochloride]  human cannabinoid CB1 receptor (Homo sapiens, UniProt P21554)           6.29
2  Cn1ccc2c(Nc3ccc(C#N)c(Br)c3)ncc(C(=O)N3CCOCC3)c21 [Example 162, hydrochloride]  human cannabinoid CB1 receptor (Homo sapiens, UniProt P21554)           6.10
3  Cn1ccc2c(Nc3cccc(Cl)c3)ncc(C(=O)N3CCSCC3)c21  human cannabinoid CB1 receptor (Homo sapiens, UniProt P21554)           6.13
